# Test system: UACC-62 melanoma
# ASSAY: NCI tumour cell line growth inhibition, 48 h
Reported GI50 values for a set of compounds

[
  {
    "COMPOUND": "Clc1ccc(CNc2nccc(-c3cnn4ncccc34)n2)cc1",
    "GI50": "3740 nM"
  }
]

**Query** What GI50 value was documented for this compound, `CCCCCCCCCCCCCCCCCCOc1ccccc1CC(=O)NCC[N+](C)(C)C` ?
**Result** 6550 nM

**Query** Entry under review: `CC(=O)[O-].[Zn].c1ccc(/C(=N\Nc2ccccn2)c2ccccn2)cc1` . Reported GI50?
**Result** 47.6 nM

**Query** Look at this compound and give its reported GI50. Clc1ccc(C2CC(c3cccc(Nc4ccncc4)c3)=NN2c2cc(Cl)cc(Cl)c2)cc1 (centres undefined)
**Result** 1770 nM

====

# System: EKVX NSCLC
# ASSAY: NCI tumour cell line growth inhibition, 48 h
QUANTITY: TGI

[
  {
    "COMPOUND": "CS(=O)(=O)N(CCC#N)c1ccc(C=O)cc1",
    "VALUE": "> 100 µM"
  }
]

**Query** If you can, please state the reported TGI value of CC(=O)OCC12CCC3C4(C)CCCC(C)(C)C4CCC3(C)C1CC(C1=CC(=O)OC1O)O2 (stereo not drawn) .
**Result** 5.92 µM

**Query** Look at this compound and give its reported TGI. `Cc1cc(C)c(S(=O)(=O)N(CCc2cccc(Br)c2)Cc2ccc(-c3cccc(S(C)(=O)=O)c3)cc2)c(C)c1`
**Result** > 100 µM

====

# Test system: MALME-3M melanoma
# ASSAY: NCI tumour cell line growth inhibition, 48 h; in the data active = GI50 below about 0.43 µM; inactive = the rest
Give your call using only these classes: active, inactive

[
  {
    "COMPOUND": "Cc1ncc(C(=O)Nc2ccc(CN3CCN(C)CC3)c(C(F)(F)F)c2)cc1C#Cc1c(N)ncc2ccccc12",
    "CLASS": "active"
  },
  {
    "COMPOUND": "Clc1ccc(CNc2nccc(-c3cnn4ncccc34)n2)cc1",
    "CLASS": "inactive"
  },
  {
    "COMPOUND": "CC(=O)OC(C)c1cc2c(s1)C(=O)c1c(C(C)OC(C)=O)csc1C2=O (stereo unspecified)",
    "CLASS": "active"
  },
  {
    "COMPOUND": "NS(=O)(=O)c1ccc(-n2ncc3c(Nc4ccccc4)ncnc32)cc1",
    "CLASS": "inactive"
  },
  {
    "COMPOUND": "Nc1ccc(C(OC(=O)c2cc3ccccc3c(Cc3c(O)c(C(=O)OC(c4ccc(N)cc4)(c4ccc(N)cc4)c4ccc(N)cc4)cc4ccccc34)c2O)(c2ccc(N)cc2)c2ccc(N)cc2)cc1",
    "CLASS": "inactive"
  }
]

**Query** Check the results log: what was the call for `COc1ccc(-c2ccc(-c3ccc(C(=N)N)cn3)o2)cc1Cl` ?
**Result** inactive

====

# Tested on: A498 renal
# ASSAY: NCI tumour cell line growth inhibition, 48 h
QUANTITY: TGI

Examples with answers:
[
  {
    "COMPOUND": "Cc1cc(C)c(S(=O)(=O)N(CCc2cccc(Br)c2)Cc2ccc(-c3cccc(S(C)(=O)=O)c3)cc2)c(C)c1",
    "TARGET OR SYSTEM": "A498 renal",
    "TGI": "> 100 µM"
  },
  {
    "COMPOUND": "CC(=O)/C=C1\\CC(=O)Nc2ccccc2N1",
    "TARGET OR SYSTEM": "A498 renal",
    "TGI": "> 100 µM"
  }
]

**Query** Given c1ccc(B2OCC(C3OB(c4ccccc4)OC4COB(c5ccccc5)OC43)O2)cc1 (stereo not drawn) , state its recorded TGI.
**Result** > 100 µM
